- System: MM1S (Plasma Cell Myeloma)
- assay.text: combination Emax (second highest fraction inhibited in the dose matrix, 72 h); higher = more inhibition; extreme values may be limits of the assay
# combination Emax annotations
# respond with the number and nothing more

{"molecule": "CCN(CCO)CCCOc1ccc2c(Nc3cc(CC(=O)Nc4cccc(F)c4)[nH]n3)ncnc2c1 [AZD2811] + C=CCn1c(=O)c2cnc(Nc3ccc(N4CCN(C)CC4)cc3)nc2n1-c1cccc(C(C)(C)O)n1 [AZD1775] (first compound max 1 µM, partner max 1 µM)", "value.kind": "combination Emax", "observed.measurement": 0.776}

Moving on to the next molecule.
Retrieve combination Emax measured for CC(=O)c1c(C)c2cnc(Nc3ccc(N4CCNCC4)cn3)nc2n(C2CCCC2)c1=O [Palbociclib] + CC1(C)CCC(CN2CCN(c3ccc(C(=O)NS(=O)(=O)c4ccc(NCC5CCOCC5)c([N+](=O)[O-])c4)c(Oc4cnc5[nH]ccc5c4)c3)CC2)=C(c2ccc(Cl)cc2)C1 [Venetoclax] (first compound max 10 µM, 7x7, partner max 1 µM) and print it. 0.308

* * *

- Test system: C-33-A (Cervical Carcinoma)
- assay.text: Bliss excess, mean over the matrix (fraction); higher = more synergy
value.kind: Bliss excess
Would you mind answering with just the numeric figure?

{"compound": "Cc1nc(-c2cn3c(n2)-c2ccc(-c4cnn(C(C)(C)C(N)=O)c4)cc2OCC3)n(C(C)C)n1 [Taselisib] + O=C(Nc1ccc2[nH]nc(-c3ccncc3)c2c1)[C@@H]1CCN(CC(=O)N2CCN(c3ccc(-c4ncccn4)cc3)CC2)C1 [SCH772984] (first compound max 10 µM, 7x7, partner max 5 µM)", "system.name": "C-33-A (Cervical Carcinoma)", "Bliss excess": 0.0551}

Please list Bliss excess recorded for the compound Cc1c2c(nn1C)CSCc1cc(n(C)n1)CSc1cc(c3ccccc3c1)OCCCc1c(C(=O)O)n(C)c3c-2c(Cl)ccc13 [AZD5991] + C[C@@H](Nc1cc(F)cc(F)c1)c1cc(C(=O)N(C)C)cc2c(=O)cc(N3CCOCC3)oc12 [AZD8186] (first compound max 1 µM, 7x7, partner max 3 µM) -0.0463

Give the measured Bliss excess for CC(=O)c1c(C)c2cnc(Nc3ccc(N4CCNCC4)cn3)nc2n(C2CCCC2)c1=O [Palbociclib] + Cn1cnc2c(F)c(Nc3ccc(Br)cc3Cl)c(C(=O)NOCCO)cc21 [Selumetinib] (first compound max 10 µM, 7x7, partner max 10 µM) 0.0164

Tell us which Bliss excess value is on record for C[C@@H](Nc1cc(F)cc(F)c1)c1cc(C(=O)N(C)C)cc2c(=O)cc(N3CCOCC3)oc12 [AZD8186] + C1CN(CCC1(C(=O)N[C@@H](CCO)C2=CC=C(C=C2)Cl)N)C3=NC=NC4=C3C=CN4 [AZD5363] (first compound max 10 µM, 7x7, partner max 10 µM) -0.0501

Return value of Bliss excess for input CC1(C)CCC(CN2CCN(c3ccc(C(=O)NS(=O)(=O)c4ccc(NCC5CCOCC5)c([N+](=O)[O-])c4)c(Oc4cnc5[nH]ccc5c4)c3)CC2)=C(c2ccc(Cl)cc2)C1 [Venetoclax] + CCN(CCO)CCCOc1ccc2c(Nc3cc(CC(=O)Nc4cccc(F)c4)[nH]n3)ncnc2c1 [AZD2811] (first compound max 1 µM, 7x7, partner max 1 µM) , no commentary. -0.0928

Tell us which Bliss excess value is on record for NC1(C(=O)N[C@@H](CCO)c2ccc(Cl)cc2)CCN(c2ncnc3[nH]ccc23)CC1 [Capivasertib] + CCN(CCO)CCCOc1ccc2c(Nc3cc(CC(=O)Nc4cccc(F)c4)[nH]n3)ncnc2c1 [AZD2811] (first compound max 10 µM, 7x7, partner max 1 µM) 0.0297

Give the reported Bliss excess for this compound. Cn1cnc2c(F)c(Nc3ccc(Br)cc3Cl)c(C(=O)NOCCO)cc21 [Selumetinib] + CCN(CCO)CCCOc1ccc2c(Nc3cc(CC(=O)Nc4cccc(F)c4)[nH]n3)ncnc2c1 [AZD2811] (first compound max 10 µM, 7x7, partner max 1 µM) 0.0162

* * *

Measured combination Emax by item
- Test system: SK-N-SH (Neuroblastoma)
- assay.text: combination Emax (second highest fraction inhibited in the dose matrix, 72 h); higher = more inhibition; extreme values may be limits of the assay
Write the number on its own, no unit after it.

In one line, give reported combination Emax of the entry CN(CCO)CC[C@H](CSc1ccccc1)Nc1ccc(S(=O)(=O)NC(=O)c2ccc(N3CCC([C@@H](O)c4ccccc4-c4ccc(Cl)cc4)CC3)cc2)cc1S(=O)(=O)C(F)(F)F [AZD4320] + Nc1ccn([C@@H]2O[C@H](CO)[C@@H](O)C2(F)F)c(=O)n1 [Gemcitabine] (first compound max 1 µM, 7x7, partner max 0.3 µM) . 0.968

Please indicate combination Emax recorded for COc1cccc(OCCCN)c1-c1cc(Nc2cnc(C#N)cn2)n[nH]1 [Prexasertib] + O=C(c1cc(Cc2n[nH]c(=O)c3ccccc23)ccc1F)N1CCN(C(=O)C2CC2)CC1 [Olaparib] (first compound max 1 µM, 7x7, partner max 10 µM) 0.834

Return reported combination Emax. Input compound: CC1(C)CCC(CN2CCN(c3ccc(C(=O)NS(=O)(=O)c4ccc(NCC5CCOCC5)c([N+](=O)[O-])c4)c(Oc4cnc5[nH]ccc5c4)c3)CC2)=C(c2ccc(Cl)cc2)C1 [Venetoclax] + CN(C)CCCOc1ccc(-c2ccc3ncc4c(c3c2)n(C2CCOCC2)c(=O)n4C)cn1 [AZD0156] (first compound max 1 µM, 7x7, partner max 1 µM) 0.394

Identify measured combination Emax associated with CN(C)CCCOc1ccc(-c2ccc3ncc4c(c3c2)n(C2CCOCC2)c(=O)n4C)cn1 [AZD0156] + O=C(c1cc(Cc2n[nH]c(=O)c3ccccc23)ccc1F)N1CCN(C(=O)C2CC2)CC1 [Olaparib] (first compound max 3 µM, partner max 3 µM) 0.292

Let me know recorded combination Emax for NC1(C(=O)N[C@@H](CCO)c2ccc(Cl)cc2)CCN(c2ncnc3[nH]ccc23)CC1 [Capivasertib] + COc1nnc2ccc(N3CCC(c4ccc(OCCN5CCN(C)C(=O)[C@H]5C)cc4)CC3)nn12 [AZD5153] (first compound max 10 µM, 7x7, partner max 1 µM) , thanks. 0.624

Answer with the recorded combination Emax for the compound listed here: Cn1cnc2c(F)c(Nc3ccc(Br)cc3Cl)c(C(=O)NOCCO)cc21 [Selumetinib] + CC(C)n1c(=O)n(C)c2cnc3cc(F)c(-c4ccc(OCCCN5CCCCC5)nc4)cc3c21 [AZD1390] (first compound max 10 µM, 7x7, partner max 0.3 µM) 0.146

Specify measured combination Emax for Cn1cnc2c(F)c(Nc3ccc(Br)cc3Cl)c(C(=O)NOCCO)cc21 [Selumetinib] + CCN(CCO)CCCOc1ccc2c(Nc3cc(CC(=O)Nc4cccc(F)c4)[nH]n3)ncnc2c1 [AZD2811] (first compound max 10 µM, 7x7, partner max 1 µM) . 0.289

* * *

- System: BxPC-3 (Pancreatic Carcinoma)
- assay.text: Bliss excess, mean over the matrix (fraction); higher = more synergy
value.kind: Bliss excess
Enter a number only.

These recorded examples may help you get a feel for the data.
{"molecule": "COc1nnc2ccc(N3CCC(c4ccc(OCCN5CCN(C)C(=O)[C@H]5C)cc4)CC3)nn12 [AZD5153] + Cn1cnc2c(F)c(Nc3ccc(Br)cc3Cl)c(C(=O)NOCCO)cc21 [Selumetinib] (first compound max 1 µM, 7x7, partner max 10 µM)", "system.name": "BxPC-3 (Pancreatic Carcinoma)", "value.kind": "Bliss excess", "observed.measurement": -0.0864}
{"molecule": "N#Cc1cnc(Nc2cc(NC[C@H]3CNCCO3)c(C(F)(F)F)cn2)cn1 [SRA737] + CCc1c2c(nc3ccc(O)cc13)-c1cc3c(c(=O)n1C2)COC(=O)[C@]3(O)CC [SN-38] (first compound max 10 µM, 7x7, partner max 0.3 µM)", "system.name": "BxPC-3 (Pancreatic Carcinoma)", "value.kind": "Bliss excess", "observed.measurement": -0.0428}
{"molecule": "C[C@@H]1COCCN1c1cc(C2([S@](C)(=N)=O)CC2)nc(-c2ccnc3[nH]ccc23)n1 [AZD6738] + Nc1ccn([C@@H]2O[C@H](CO)[C@@H](O)C2(F)F)c(=O)n1 [Gemcitabine] (first compound max 10 µM, 7x7, partner max 0.3 µM)", "system.name": "BxPC-3 (Pancreatic Carcinoma)", "value.kind": "Bliss excess", "observed.measurement": 0.008}
{"molecule": "NC1(C(=O)N[C@@H](CCO)c2ccc(Cl)cc2)CCN(c2ncnc3[nH]ccc23)CC1 [Capivasertib] + Cn1cnc2c(F)c(Nc3ccc(Br)cc3Cl)c(C(=O)NOCCO)cc21 [Selumetinib] (first compound max 10 µM, 7x7, partner max 10 µM)", "system.name": "BxPC-3 (Pancreatic Carcinoma)", "value.kind": "Bliss excess", "observed.measurement": -0.0091}
{"molecule": "C[C@@H](Nc1cc(F)cc(F)c1)c1cc(C(=O)N(C)C)cc2c(=O)cc(N3CCOCC3)oc12 [AZD8186] + CC(=O)c1c(C)c2cnc(Nc3ccc(N4CCNCC4)cn3)nc2n(C2CCCC2)c1=O [Palbociclib] (first compound max 10 µM, 7x7, partner max 10 µM)", "system.name": "BxPC-3 (Pancreatic Carcinoma)", "value.kind": "Bliss excess", "observed.measurement": -0.0127}

Report Bliss excess from BxPC-3 (Pancreatic Carcinoma) testing of CN(C)CCCOc1ccc(-c2ccc3ncc4c(c3c2)n(C2CCOCC2)c(=O)n4C)cn1 [AZD0156] + O=C(c1cc(Cc2n[nH]c(=O)c3ccccc23)ccc1F)N1CCN(C(=O)C2CC2)CC1 [Olaparib] (first compound max 3 µM, partner max 3 µM) -0.0342

Write down the reported Bliss excess (system: BxPC-3 (Pancreatic Carcinoma)) of CC1(C)CCC(CN2CCN(c3ccc(C(=O)NS(=O)(=O)c4ccc(NCC5CCOCC5)c([N+](=O)[O-])c4)c(Oc4cnc5[nH]ccc5c4)c3)CC2)=C(c2ccc(Cl)cc2)C1 [Venetoclax] + CCN(CCO)CCCOc1ccc2c(Nc3cc(CC(=O)Nc4cccc(F)c4)[nH]n3)ncnc2c1 [AZD2811] (first compound max 1 µM, 7x7, partner max 1 µM) 0.0003
